Source of measurements: PubChem BioAssay AID588850

Listing of recorded inhibition by entry.
PROTOCOL_TEXT: NF-kB reporter blockers in CF airway cells – cell-based, GFP fluorescence, uHTS, primary screen (AID 588850);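 note: PAF is a Pseudomonas aeruginosa culture filtrate used as stimulus; plate controls were PAF-stimulated DMSO wells for no effect and unstimulated DMSO wells for full effect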
EXPERIMENTAL_PARAMETERS: KKLEB NF-kB-GFP reporter, PAF-induced, GFP fluorescence overnight; at 5 µM; active compounds read high
In all, about 360,000 compounds went through this assay and about 3,100 (0.86%) were called active. The full list was thinned out, with actives kept by preference.
ASSAY_ENDPOINT: inhibition (%)

> print(dat)
                                   compound  value.observed
1  Cc1cc(Br)ccc1NC(=O)CN(C)C(=O)CN1C(=O)NC2(CCCC2)C1=O            -8.9
2  CC(C)c1ccc2c(c1)c(SC(C)(C)C)c(CC(C)(C)C(=O)O)n2Cc1ccc(Cl)cc1            63.4
3  CC1Cn2c(nnc2-c2cccs2)S1 (configuration not stated)             9.9
4  O=C(Nc1ccc(S(=O)(=O)N2CCCCCC2)cc1)c1c(F)cccc1F           -20.3
5  CC(C)CC1(C(=O)NCc2ccccn2)C=CCN1C(=O)c1ccccc1 (configuration not stated)            -3.1
6  O=C(Nc1nc(-c2ccncc2)cs1)C1COc2ccccc2O1 (configuration not stated)            53.8
7  CC(=O)c1ccccc1NC(=O)COC(=O)C1COc2ccccc2O1 (configuration not stated)            -8.8
